# Tested on: HOP-92 NSCLC
# protocol: NCI-60 one-dose screen, 48 h
# applied_conditions: 10 µM unless noted
Compounds without any hit were thinned out: in the full panel of roughly 83,000, 20% have a hit. Activity calls are given as the source filed them. How the source made its calls: active means growth percent below 10; inactive means the rest.
Would you mind answering with one of these outcomes? y for active, n for inactive

[[record]]
compound = "C=C1C(=O)O[C@H]2[C@H]1CC/C(COC(=O)c1ccc(C(=O)O)s1)=C\\CC[C@@]1(C)O[C@@H]21"
category = "y"


Record lookup: outcome of this test for [2H]C([2H])([2H])Oc1ccc(F)cc1/C=C/C(=O)/C=C(/C=C/c1cc(F)ccc1OC([2H])([2H])[2H])OB(F)F ?
n

Now try COc1ccc(C(O)c2cc3c(N)c(C(=O)Nc4cccc(Cl)c4C)sc3nc2C)cc1 (centres undefined) .
n

Next up: N#Cc1cncc(-c2ccc3ncnc(Nc4cccc(Cl)c4)c3c2)c1
n

Same again, this time with Nc1ccc(-c2csc(-n3[nH]c(=O)ccc3=O)n2)cc1
n

Entry COC1=C(C)C(=O)N2[C@@H]1[C@H](c1ccccc1)OC21C=CC(=O)C=C1 please
y

Would you mind doing C=CCN1C(=O)c2cccc3c(N4CCOCC4)ccc(c23)C1=O as well?
n

Same for Nc1ncnc2c1N=C(c1ccc3c(c1)OCO3)CC(c1cccc(Nc3ccnc4cc(C(F)(F)F)ccc34)c1)N2 (centres undefined)
n

Consider next the compound O=C(Nc1ccccc1N1CCCC1=O)c1oc2ccc(F)cc2c1-c1cnn(-c2ccccc2)c1 in the same way.
n

====

# Tested on: DU-145 prostate
# protocol: NCI-60 one-dose screen, 48 h (100 = growth as untreated, 0 = no growth, -100 = all killed)
# applied_conditions: 10 µM unless noted
About 83,000 compounds went through this panel and 20% of them were active in at least one assay; those are over-represented in the sample as a whole.
Could you mark each record Fulfilled if its growth falls strictly under 60%, and Not fulfilled if it equals or exceeds it?

[[record]]
compound = "CCCCNC(=O)c1cc([N+](=O)[O-])cc(C2CCCCC2)c1O"
test_system = "DU-145 prostate"
category = "Fulfilled"

[[record]]
compound = "CC1=CCC(OC(=O)C(C)(C)CC(O)(C(C)O)C(O)C2(C)C=CC(Cc3ccc(C(C)C)cc3)(C(C)C)CC2)(C(C)C)CC1 (stereo not drawn)"
test_system = "DU-145 prostate"
category = "Not fulfilled"

[[record]]
compound = "Cc1ccc(S(=O)(=O)N2CCC(=O)c3ccccc32)cc1"
test_system = "DU-145 prostate"
category = "Not fulfilled"

[[record]]
compound = "O=C(Oc1ccc(CCl)cc1)c1ccccc1"
test_system = "DU-145 prostate"
category = "Fulfilled"

[[record]]
compound = "CC1(C)OB(O)c2cc(-c3nc4ccc5[nH]ncc5c4c4c3CCCC4)ccc21"
test_system = "DU-145 prostate"
category = "Fulfilled"

[[record]]
compound = "CCN1C(=O)N(CC)C2C1NC(=S)N2/N=C/c1ccc(OC)cc1 (stereo not drawn)"
test_system = "DU-145 prostate"
category = "Not fulfilled"


Now take the following compound into account.
Consider C#CC#CC#CC#CC#CC#CC#CC#CC[C@@H]1OC[C@@H](COC(=O)O[C@@H](C(=O)O[C@H]2C[C@@]3(O)[C@@H](OC(=O)c4ccccc4)[C@@H]4[C@]5(OC(C)=O)CO[C@@H]5C[C@H](O)[C@@]4(C)C(=O)[C@H](OC(C)=O)C(=C2C)C3(C)C)[C@@H](NC(=O)c2ccccc2)c2ccccc2)O1 . Does its growth lie strictly below 60%?
Not fulfilled
